Reported PBM binding z-score values are given for each entry in this list.
# System: LXRa homodimer (NR concentration 270 nM)
# Test name: PBM binding z-score (relative to random genomic background probes); higher = stronger binding; sequences stand for … in GC…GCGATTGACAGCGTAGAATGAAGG

Worked set:
- Residue codes: "GCATTTAGGTAATACAAGGTGAAAGTCCGATTGT"
  PBM binding z-score: 0.274
- Residue codes: "ACAGACAGGTGATGAAGGCAACTCAGGCTATCAT"
  PBM binding z-score: -0.41
- Residue codes: "CCTGCTGGGCCAAAAAGGTCATTGATGCCGATAA"
  PBM binding z-score: 2.82

In: Record request: PBM binding z-score value, item `GCGACTGGGGCATTAGCAGGTTACCATAACTTAA`
Out: 0.0141

In: // PBM binding z-score lookup, key: `AGTCAAAGTTCACTAGGTAACGCAAGATTCAGCT`
Out: 2.69

In: Requested field: PBM binding z-score. Item: `CCTTACGGGTCAACGTTATAGCACGGGTGGTACG`
Out: -0.0163

In: May I ask what PBM binding z-score has been recorded for `ATCTCTAGGTAAAAGCTCAGTGAATCCCGAGGAT` ?
Out: -0.281

In: What does the record list as PBM binding z-score for `TCTAGTGGGTCACGGAGGTCACACACGACGGGTA` ?
Out: 2.85

In: What value of measured PBM binding z-score is listed for `GCTTGTATATCAAGGTTAAGAAAGACTAAGCTAA` ?
Out: -0.0678

In: I would be grateful if you could share the reported PBM binding z-score for `AGAATGAGGTTATTAAGGTCAGGGAATTGCGGTC` .
Out: 3.44

In: So what does the record say about PBM binding z-score for `ACTAGCAGGCCAAATTTGGGTCACTCAAACAAAG` ?
Out: -0.377

In: Given the sequence `TCTTGTAGATCAAAGGTTAACAAAGCCGAAGCCT` , what is its reported PBM binding z-score?
Out: -0.0148

* * *

# System: RARb homodimer (NR concentration 270 nM)
# Test name: PBM binding z-score (relative to random genomic background probes); higher = stronger binding; sequences stand for … in GC…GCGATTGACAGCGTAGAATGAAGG
Experimental readout: PBM binding z-score
Output spec: single numeric token, no unit.

Below: 10 sequences and their reported PBM binding z-score.
- Residue codes: "CATTACGGGTCACGAGGTTATAGCACGACGAGCG"
  PBM binding z-score: 4.22
- Residue codes: "GGAACGAGGGCAAGTTGAGAGCAGAGTTTGATGG"
  PBM binding z-score: 1.58
- Residue codes: "CTTCAAAGTTCAACTAAGGTAACGTAAAGCACGC"
  PBM binding z-score: 4.33
- Residue codes: "ATATGTAAGTTAGCTGGGGTCATTCAGACTAGGC"
  PBM binding z-score: 3.29
- Residue codes: "AGTCCAAGTTCATCTAGGTAACGTAAGATATGCT"
  PBM binding z-score: 2.25
- Residue codes: "ATCTCTAGGTAAAAGTTCCGTGAATCCCGAGGAT"
  PBM binding z-score: -0.157
- Residue codes: "CGAACTAGGTCATCCAGCACAGTGAATACATTGA"
  PBM binding z-score: 2.79
- Residue codes: "TCTGCCAGGTCAGTTGGTCAGCTAACGAGCTGCC"
  PBM binding z-score: 2.77
- Residue codes: "TCGGGTAGGTTAGGGGCATTCAGAATGGCGTCGA"
  PBM binding z-score: 1.88
- Residue codes: "CCTCGGAGGACAATAGGAGGTCAGAGCTGCCAGA"
  PBM binding z-score: 3.18

In: Sample `TGACCAAGGTGAAAGGTCGTTGATGCACGCCTTG` — what was its PBM binding z-score?
Out: 2.49

In: Looking for the measured PBM binding z-score of `CCTTACGGGTCACTCGAGGTTATAGCATCGGAGT` , can you help?
Out: 3.27

In: Endpoint output: PBM binding z-score of `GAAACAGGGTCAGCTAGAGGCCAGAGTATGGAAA` . Value?
Out: 3.26

In: Consider the sequence shown here: `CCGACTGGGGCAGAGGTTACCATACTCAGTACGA` What is its recorded PBM binding z-score?
Out: 1.64

In: Quick one: PBM binding z-score of `CGAACTAGGTCATTGACAGGACAGTGAGTAGTAA` ?
Out: 2.57

In: What does the record list as PBM binding z-score for `CGAACGAGGGAATGAGTTGATAGCAAATGCCGAT` ?
Out: -0.933

In: So what's the measured PBM binding z-score for this one? `CCTGTTAGGTCATGGTCAGCTAATCTACAGTATG`
Out: 3.36

* * *

# Tested on: PPARa:RXRa (NR concentration 270 nM, RXRa partner concentration 90 nM)
# Test name: PBM binding z-score (relative to random genomic background probes); higher = stronger binding; sequences stand for … in GC…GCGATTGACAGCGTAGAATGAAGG
Everything with PBM binding z-score lower than 1 is Condition not met; everything else, including exactly 1, is Condition met.

Use the examples below as a reference point.
- Residue codes: "TCTGCTAGGTCAGTTGGTCAGCTGACGAGCTGCC"
  Label: "Condition met"
- Residue codes: "GCAGCTAGGTCAACTGATGGTCAGCTAAAGCTCG"
  Label: "Condition met"
- Residue codes: "TAGCCTAGGTGAGATCGGGCCAGTATACGCTATA"
  Label: "Condition not met"
- Residue codes: "TGTCAAAGTTAAAAGGTAACGTAAGTATCCACAC"
  Label: "Condition met"
- Residue codes: "CTACCAAGGTGAACGAGGTCGTTGATTACTATTC"
  Label: "Condition met"
- Residue codes: "ATATGTAGGTTAGCTGGGGTCATTCAAACTAGGC"
  Label: "Condition met"
- Residue codes: "CCTAGTTGATCAAGGTCACACACGCTATAGGTAC"
  Label: "Condition met"
- Residue codes: "CAGCCTAGGTCATGGCCAGTATAGGAGGAACGTT"
  Label: "Condition met"
- Residue codes: "ACTATTAGTTGAGACGAGGGCAACCGGTAGGTTG"
  Label: "Condition not met"
- Residue codes: "CCTAGTTGGTCAAGGCCACACACGCTATAGGTAC"
  Label: "Condition not met"

In: Has `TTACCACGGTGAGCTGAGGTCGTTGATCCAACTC` a recorded PBM binding z-score greater than or equal to 1?
Out: Condition not met

In: API: above_or_equal(metric=PBM binding z-score, cutoff=1) for item `ACTAGTTGGTCAGCTGACGTCACACACAATTCGG`
Out: Condition not met

* * *

# Test system: RARa homodimer (NR concentration 270 nM)
# Test name: PBM binding z-score (relative to random genomic background probes); higher = stronger binding; sequences stand for … in GC…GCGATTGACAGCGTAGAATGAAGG
Listed here are sequences together with their documented PBM binding z-score.

- Residue codes: "CGTACAGGGTCAGCTAGGCCAGAGTAGGGACGGC"
  Experimental value: -0.147
- Residue codes: "ATCTCTAGGTAACTAAGTTCAGTGAATGCCGAAC"
  Experimental value: 0.922
- Residue codes: "ACTATAAGTTGACTTAGGGCAACCGATACGACGC"
  Experimental value: 0.56

In: Looking for the measured PBM binding z-score of `GCTGCGAGGTCAGGTTGGTCAGCTAACGGGTACG` , can you help?
Out: 0.367

In: What value of PBM binding z-score has been recorded for this entry: `CTACCAAGGTGAACAAGGTCATTGATTACTATTC`
Out: 1.19

In: Sample `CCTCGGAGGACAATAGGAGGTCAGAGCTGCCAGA` — what was its PBM binding z-score?
Out: -0.149

In: Suppose we examine the sequence `ACTAGTTGGTCAGCTGATGTCACACACAATTCGG` ; what PBM binding z-score value has been reported?
Out: 0.341

In: # PBM binding z-score lookup, item `CCGAGTAGGTTATGGGGCACTCAGGCAACGGTGA`
Out: -0.134

In: For `CGAACTAGGTAAGAACAGGACAGTGAAGGATGAT` , what is its reported PBM binding z-score?
Out: -0.184

In: What value of PBM binding z-score has been reported for the following sequence? `TCTCGGAGGACACGAAGGTCCGAGCTTTCCAGAG`
Out: -1.26

In: I am curious: what PBM binding z-score value has been reported for `ACCGAAAGGTCGAAGGTGAGTATACCCACCCGAA` ?
Out: 0.157

In: Tell me the measured PBM binding z-score of `GCTCGGTGGACAAGGTCAGAGCTTTGTCCGTAGA` , please.
Out: -0.966
